Each entry below carries its recorded pIC50.
target: human Cav2.2 (Homo sapiens, UniProt Q00975); construct: cells endogenously expressing human Cav2.2; endogenous in cells; experiment: Calcium flux (FLIPR, Calcium 4 dye) in IMR32 cells endogenously expressing human Cav2.2; settings: 60 minute pre-incubation, 2 μM nifedipine to block L-type channels, depolarized with 80 mM KCl, 5 mM CaCl2, average of n≥2 runs unless marked *
Sequence (Q00975 whole entry): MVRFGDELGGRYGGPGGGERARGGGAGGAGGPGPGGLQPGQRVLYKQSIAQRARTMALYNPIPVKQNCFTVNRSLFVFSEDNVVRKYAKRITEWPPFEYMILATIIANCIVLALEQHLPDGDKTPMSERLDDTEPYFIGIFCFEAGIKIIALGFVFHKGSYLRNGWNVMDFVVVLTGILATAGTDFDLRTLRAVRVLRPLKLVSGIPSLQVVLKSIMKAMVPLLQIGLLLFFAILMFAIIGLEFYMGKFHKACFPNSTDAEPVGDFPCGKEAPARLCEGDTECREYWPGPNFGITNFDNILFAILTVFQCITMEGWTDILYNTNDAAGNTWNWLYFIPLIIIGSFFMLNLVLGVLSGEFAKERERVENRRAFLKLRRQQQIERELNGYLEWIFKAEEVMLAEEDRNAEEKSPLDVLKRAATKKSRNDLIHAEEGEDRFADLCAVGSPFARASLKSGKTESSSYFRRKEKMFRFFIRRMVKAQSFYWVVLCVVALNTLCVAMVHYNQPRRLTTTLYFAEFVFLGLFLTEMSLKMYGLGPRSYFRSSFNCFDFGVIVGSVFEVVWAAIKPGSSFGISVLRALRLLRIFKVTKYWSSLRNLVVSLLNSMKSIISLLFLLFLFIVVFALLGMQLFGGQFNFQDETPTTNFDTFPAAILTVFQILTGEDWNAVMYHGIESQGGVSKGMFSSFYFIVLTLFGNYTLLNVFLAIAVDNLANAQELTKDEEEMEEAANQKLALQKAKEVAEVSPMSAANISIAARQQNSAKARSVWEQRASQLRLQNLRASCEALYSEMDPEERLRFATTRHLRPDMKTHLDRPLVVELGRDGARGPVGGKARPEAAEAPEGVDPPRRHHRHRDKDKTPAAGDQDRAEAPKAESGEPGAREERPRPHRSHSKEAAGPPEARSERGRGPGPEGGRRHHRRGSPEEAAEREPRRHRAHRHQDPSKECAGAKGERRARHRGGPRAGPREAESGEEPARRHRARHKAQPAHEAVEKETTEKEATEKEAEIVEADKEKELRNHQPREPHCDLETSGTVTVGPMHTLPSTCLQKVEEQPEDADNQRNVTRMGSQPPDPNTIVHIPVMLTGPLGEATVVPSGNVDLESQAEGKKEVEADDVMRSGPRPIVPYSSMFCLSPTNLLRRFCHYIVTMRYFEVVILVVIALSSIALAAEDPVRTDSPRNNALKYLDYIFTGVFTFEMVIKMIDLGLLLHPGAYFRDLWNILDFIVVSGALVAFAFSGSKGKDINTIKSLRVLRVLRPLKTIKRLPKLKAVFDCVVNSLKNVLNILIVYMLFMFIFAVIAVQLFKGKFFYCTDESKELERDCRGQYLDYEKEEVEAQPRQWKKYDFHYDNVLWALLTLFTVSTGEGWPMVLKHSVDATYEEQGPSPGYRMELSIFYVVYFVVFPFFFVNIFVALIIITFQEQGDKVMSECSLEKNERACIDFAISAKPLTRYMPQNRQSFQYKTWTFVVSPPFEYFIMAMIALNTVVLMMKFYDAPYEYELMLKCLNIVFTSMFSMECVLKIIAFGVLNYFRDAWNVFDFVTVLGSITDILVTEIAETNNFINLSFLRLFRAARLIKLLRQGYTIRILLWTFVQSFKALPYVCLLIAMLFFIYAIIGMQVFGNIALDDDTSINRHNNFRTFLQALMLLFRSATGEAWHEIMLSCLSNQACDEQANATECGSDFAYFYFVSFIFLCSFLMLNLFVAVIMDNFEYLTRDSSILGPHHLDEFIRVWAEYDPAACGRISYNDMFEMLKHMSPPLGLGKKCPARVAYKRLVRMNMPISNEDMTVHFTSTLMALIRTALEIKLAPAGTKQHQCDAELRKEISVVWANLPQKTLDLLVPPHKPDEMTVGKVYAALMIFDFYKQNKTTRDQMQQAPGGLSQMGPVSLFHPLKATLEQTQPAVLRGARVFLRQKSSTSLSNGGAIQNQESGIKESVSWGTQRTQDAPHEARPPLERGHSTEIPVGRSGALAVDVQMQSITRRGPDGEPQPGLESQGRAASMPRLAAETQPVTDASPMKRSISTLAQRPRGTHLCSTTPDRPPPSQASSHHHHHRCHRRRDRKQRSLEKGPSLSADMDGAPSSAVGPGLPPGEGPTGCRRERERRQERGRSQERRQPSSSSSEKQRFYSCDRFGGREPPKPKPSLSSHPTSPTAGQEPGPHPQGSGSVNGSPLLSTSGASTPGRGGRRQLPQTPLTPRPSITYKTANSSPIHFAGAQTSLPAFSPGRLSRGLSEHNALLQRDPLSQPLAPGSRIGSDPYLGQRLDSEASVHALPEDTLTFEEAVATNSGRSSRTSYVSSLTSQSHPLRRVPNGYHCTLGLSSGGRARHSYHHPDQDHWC
Sequence (P54284 whole entry partner): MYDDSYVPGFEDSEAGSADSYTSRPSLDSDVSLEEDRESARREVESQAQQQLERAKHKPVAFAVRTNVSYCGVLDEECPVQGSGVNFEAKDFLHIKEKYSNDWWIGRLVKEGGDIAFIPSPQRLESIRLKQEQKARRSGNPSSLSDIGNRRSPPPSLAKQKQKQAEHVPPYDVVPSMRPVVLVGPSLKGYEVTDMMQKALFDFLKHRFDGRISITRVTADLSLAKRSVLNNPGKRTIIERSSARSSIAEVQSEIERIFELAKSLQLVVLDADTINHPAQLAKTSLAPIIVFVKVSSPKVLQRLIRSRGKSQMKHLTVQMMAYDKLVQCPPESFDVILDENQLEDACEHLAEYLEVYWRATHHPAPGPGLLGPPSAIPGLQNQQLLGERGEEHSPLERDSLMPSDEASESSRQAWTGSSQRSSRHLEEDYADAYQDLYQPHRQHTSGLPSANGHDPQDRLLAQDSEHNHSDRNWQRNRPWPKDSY
Sequence (P54289 25-956 partner limits assumed): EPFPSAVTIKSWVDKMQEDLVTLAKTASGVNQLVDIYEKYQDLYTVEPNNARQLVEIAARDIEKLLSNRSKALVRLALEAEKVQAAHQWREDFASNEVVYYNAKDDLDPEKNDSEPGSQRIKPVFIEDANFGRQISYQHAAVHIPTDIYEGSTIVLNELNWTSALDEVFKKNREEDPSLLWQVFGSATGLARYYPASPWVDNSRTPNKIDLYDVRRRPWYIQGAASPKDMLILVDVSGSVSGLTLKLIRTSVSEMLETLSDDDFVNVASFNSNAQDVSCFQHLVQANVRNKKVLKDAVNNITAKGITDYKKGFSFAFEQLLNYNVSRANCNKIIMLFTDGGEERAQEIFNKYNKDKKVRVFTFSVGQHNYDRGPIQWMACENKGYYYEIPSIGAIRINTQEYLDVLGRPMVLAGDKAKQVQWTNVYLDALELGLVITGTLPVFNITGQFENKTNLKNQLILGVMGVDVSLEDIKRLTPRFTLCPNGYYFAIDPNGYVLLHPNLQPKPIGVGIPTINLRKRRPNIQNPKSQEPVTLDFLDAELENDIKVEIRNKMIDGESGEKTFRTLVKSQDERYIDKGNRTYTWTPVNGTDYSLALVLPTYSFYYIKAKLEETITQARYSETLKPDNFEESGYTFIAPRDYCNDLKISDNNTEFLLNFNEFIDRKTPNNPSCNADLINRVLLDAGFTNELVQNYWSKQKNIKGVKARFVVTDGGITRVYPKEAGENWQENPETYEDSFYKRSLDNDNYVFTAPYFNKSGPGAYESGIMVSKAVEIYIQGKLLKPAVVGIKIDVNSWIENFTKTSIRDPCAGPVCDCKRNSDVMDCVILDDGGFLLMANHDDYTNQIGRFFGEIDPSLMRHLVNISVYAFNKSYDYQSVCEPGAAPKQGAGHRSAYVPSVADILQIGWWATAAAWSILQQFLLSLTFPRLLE
Sequence (P54289 957-1103 partner limits assumed): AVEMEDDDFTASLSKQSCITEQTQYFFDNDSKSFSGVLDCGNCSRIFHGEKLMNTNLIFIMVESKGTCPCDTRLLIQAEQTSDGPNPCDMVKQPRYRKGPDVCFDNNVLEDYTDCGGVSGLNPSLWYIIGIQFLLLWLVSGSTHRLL
pIC50 here: minus log base 10 of the concentration, concentration in moles per litre.

molecule-smiles: O=C1CCN(c2ccc(C(F)(F)F)cn2)C[C@H]2C[C@H](Oc3cnc(C4CC4)cn3)CN12
value-kind: pIC50
measurement: 5.29

molecule-smiles: O=C(c1cccc(C(F)(F)F)n1)N1CCCN2C[C@H](Oc3cnc(C4CC4)cn3)C[C@H]2C1
value-kind: pIC50
measurement: 5.21

Data request, read-out pIC50, for O=C1CCN(Cc2ccc(OC(F)(F)F)cc2)C[C@H]2C[C@H](Oc3cnc(C4CC4)cn3)CN12 5.49

Data request, read-out pIC50, for O=C(Cc1cccc(C(F)(F)F)c1)N1CCC(=O)N2C[C@H](Oc3cnc(C4CC4)cn3)C[C@H]2C1 5.68

====

target: human Cav2.2 (Homo sapiens); construct: cells endogenously expressing human Cav2.2; endogenous in cells; assay: Calcium flux (FLIPR, Calcium 4 dye) in IMR32 cells endogenously expressing human Cav2.2; conditions: 60 minute pre-incubation, 2 μM nifedipine to block L-type channels, depolarized with 80 mM KCl, 5 mM CaCl2, average of n≥2 runs unless marked *
Each entry below carries its recorded IC50.
Respond with the bare value in nM.

compound: O=C1CCN(S(=O)(=O)c2cccc(C(F)(F)F)c2)C[C@@H]2C[C@@H](Oc3ccc(C(F)(F)F)cn3)CN12 [Example 31]
IC50 (nM): 600

compound: O=C1CCN(Cc2ccc(OC(F)(F)F)cc2)C[C@H]2C[C@@H](Oc3cnc(C4CC4)cn3)CN12 [Example 56]
IC50 (nM): 2500

compound: FC(F)(F)c1ccc(N2CCCN3C[C@H](Oc4cnc(C5CC5)cn4)C[C@H]3C2)nc1 [Example 19]
IC50 (nM): 1210

compound: O=C(c1cccc(C(F)(F)F)c1)N1CCC(=O)N2C[C@@H](Oc3cnc(C4CC4)cn3)C[C@H]2C1 [Example 60]
IC50 (nM): 18800

compound: O=C(c1ccc(F)c(C(F)(F)F)c1)N1CCC(=O)N2C[C@H](Oc3cnc(C4CC4)cn3)C[C@H]2C1 [Example 36]
IC50 (nM): 1780

compound: O=C1CCN(S(=O)(=O)c2ccc(C(F)(F)F)cc2)C[C@@H]2C[C@@H](Oc3ccc(C(F)(F)F)nc3)CN12 [Example 54]
IC50 (nM): 1290

compound: O=C1[C@H](Oc2cnc(C3CC3)cn2)C[C@H]2CN(c3ccc(C(F)(F)F)cn3)CCCN12 [Example 21]
IC50 (nM): 3470

compound: O=C(c1cccc(OC(F)(F)F)c1)N1CCCN2C[C@H](Oc3cnc(C4CC4)cn3)C[C@H]2C1 [Example 9]
IC50 (nM): 1350

Data request, read-out IC50, for O=C(c1cccc(OC(F)(F)F)c1)N1CCC(=O)N2C[C@H](Oc3cnc(C4CC4)cn3)C[C@H]2C1 [Example 37] 1140

Data request, read-out IC50, for O=C(c1ccc(OC(F)(F)F)cc1)N1CCC(=O)N2C[C@H](Oc3cnc(C4CC4)cn3)C[C@H]2C1 [Example 38] 2810

Data request, read-out IC50, for O=C1CCN(c2cccc(C(F)(F)F)n2)C[C@@H]2C[C@@H](Oc3cnc(C4CC4)cn3)CN12 [Example 48] 1540

Data request, read-out IC50, for O=S(=O)(c1ccc(C(F)(F)F)cc1)N1CCCN2C[C@H](Oc3cnc(C4CC4)cn3)C[C@H]2C1 [Example 2] 200

Data request, read-out IC50, for O=C(c1ccc(F)cc1)N1CCCN2C[C@H](Oc3cnc(C4CC4)cn3)C[C@H]2C1 [Example 8] 3040

Data request, read-out IC50, for O=C1CCN(Cc2cccc(OC(F)(F)F)c2)C[C@@H]2C[C@@H](Oc3cnc(C4CC4)cn3)CN12 [Example 43] 1110

====

molecular target: human Cav2.2 (Homo sapiens); construct: cells endogenously expressing human Cav2.2; endogenous in cells; host or cells: IMR32 cells; assay: Calcium flux (FLIPR, Calcium 4 dye) in IMR32 cells endogenously expressing human Cav2.2; type: cell-based; conditions: 60 minute pre-incubation, 2 μM nifedipine to block L-type channels, depolarized with 80 mM KCl, 5 mM CaCl2, average of n≥2 runs unless marked *
# note: exactly 2000 nM is not below, so it is 0.0; use 1.0 for IC50 strictly under it

Example cases with answers are listed next.
molecule-smiles: O=C(c1ccc(C(F)(F)F)cn1)N1CCCN2C[C@H](Oc3cnc(C4CC4)cn3)C[C@H]2C1
class-name: 0.0

molecule-smiles: O=C1[C@H](Oc2ccc(C(F)(F)F)cn2)C[C@H]2CN(S(=O)(=O)c3ccc(C(F)(F)F)cc3)CCCN12
class-name: 1.0

Continue with the compound presented below.
Problem: For the compound O=C1CCN(S(=O)(=O)c2cccc(C(F)(F)F)c2)C[C@@H]2C[C@@H](Oc3cnc(C4CC4)cn3)CN12 , is IC50 under 2000 nM? 1.0

====

Biological target: human Cav2.2 (Homo sapiens, UniProt Q00975)
Construct: cells endogenously expressing human Cav2.2; endogenous in cells; host or cells: IMR32 cells
Assay: Calcium flux (FLIPR, Calcium 4 dye) in IMR32 cells endogenously expressing human Cav2.2
Assay type: cell-based
Conditions: 60 minute pre-incubation, 2 μM nifedipine to block L-type channels, depolarized with 80 mM KCl, 5 mM CaCl2, average of n≥2 runs unless marked *
Protocol: Compounds were tested for effect on calcium flux in cells endogenously expressing human Cav2.2. […] To determine the IC50 values, the percent inhibition of the compound at each concentration was determined relative to the activity in the absence of inhibitor, and data was fitted using non-linear regression sigmoidal dose response curve analysis with GraphPad Prism®. […]
value-kind: IC50 (nM)
Respond with the bare value in nM.

These solved cases illustrate the format of a correct answer.
molecule: CNC(C(=O)N1CCC(=O)N2C[C@H](Oc3cnc(C4CC4)cn3)C[C@H]2C1)c1cccc(C(F)(F)F)c1 (stereo partly shown) [Example 41]
display-unit: nM
measurement: 3450
//
molecule: O=C(c1ccc(F)c(C(F)(F)F)c1)N1CCCN2C[C@H](Oc3cnc(C4CC4)cn3)C[C@H]2C1 [Example 14]
display-unit: nM
measurement: 1450
//
molecule: O=C1[C@@H]2C[C@@H](Oc3cnc(C4CC4)cn3)CN2CCCN1Cc1ccc(C(F)(F)F)c(F)c1 [Example 25]
display-unit: nM
measurement: 1190

Here is another molecule to look at.
Data request, read-out IC50, for O=C(c1cccc(C(F)(F)F)c1)N1CCC(=O)N2C[C@@H](Oc3cnc(C4CC4)cn3)C[C@@H]2C1 [Example 63] 22500

====

Biological target: human Cav2.2 (Homo sapiens, UniProt Q00975)
Construct: cells endogenously expressing human Cav2.2; endogenous in cells
Test: Calcium flux (FLIPR, Calcium 4 dye) in IMR32 cells endogenously expressing human Cav2.2
Settings: 60 minute pre-incubation, 2 μM nifedipine to block L-type channels, depolarized with 80 mM KCl, 5 mM CaCl2, average of n≥2 runs unless marked *
Procedure: Compounds were tested for effect on calcium flux in cells endogenously expressing human Cav2.2. […] To determine the IC50 values, the percent inhibition of the compound at each concentration was determined relative to the activity in the absence of inhibitor, and data was fitted using non-linear regression sigmoidal dose response curve analysis with GraphPad Prism®. […]
value-kind: pIC50
pIC50 here: minus log base 10 of the concentration, concentration in moles per litre.

molecule-smiles: O=C1[C@@H]2C[C@@H](Oc3cnc(C4CC4)cn3)CN2CCCN1Cc1cccc(C(F)(F)F)c1
pIC50: 5.76

molecule-smiles: O=C1CCN(S(=O)(=O)c2cccc(C(F)(F)F)c2)C[C@@H]2C[C@@H](Oc3ccc(C(F)(F)F)nc3)CN12
pIC50: 5.40

molecule-smiles: O=C(c1ccc(C(F)(F)F)c(F)c1)N1CCCN2C[C@H](Oc3cnc(C4CC4)cn3)C[C@H]2C1
pIC50: 5.88

molecule-smiles: O=C(c1ccc(F)c(Cl)c1)N1CCCN2C[C@H](Oc3cnc(C4CC4)cn3)C[C@H]2C1
pIC50: 5.64

molecule-smiles: O=C1CCN(c2ncc(C(F)(F)F)cc2F)C[C@@H]2C[C@@H](Oc3cnc(C4CC4)cn3)CN12
pIC50: 5.61

Data request, read-out pIC50, for O=C1CCN(S(=O)(=O)c2ccc(C(F)(F)F)cc2)C[C@@H]2C[C@H](Oc3cnc(C4CC4)cn3)CN12 5.92

Data request, read-out pIC50, for O=C(c1ccc(C(F)(F)F)cc1)N1CCCN2C[C@H](Oc3cnc(C4CC4)cn3)C[C@H]2C1 6.06
